- Test system: Helicobacter pylori
- run.description: Antibacterial activity against Helicobacter pylori assessed as bacterial growth inhibition
- Format: functional
parameter.measured: MIC

O=C1N/C(=N\c2cccs2)S/C1=C\c1ccc([N+](=O)[O-])o1 ... < 1.5 µg/mL
Cn1c([N+](=O)[O-])cnc1/C=C1\S/C(=N/c2cccs2)NC1=O ... < 1.5 µg/mL
COC1=CC(=O)c2c(c(OC)c3cc(C)oc(=O)c3c2O)C1=O ... 64 µg/mL

Prompt line: Fill in the blank: the reported MIC of Cc1ncc([N+](=O)[O-])n1CCO is ____.
Response line: > 254 µg/mL

###

- run.description: Inhibition of urease (unknown origin)
pIC50: −log10 of the molar value.
parameter.measured: pIC50

[I] CN(O)C(=O)CC(O)c1cccc(Cl)c1 (configuration not stated)
[II] O=C(CC(O)c1cc(Cl)ccc1OCc1ccccc1)NO (configuration not stated)
Prompt line: Which record would sort first by descending pIC50, I or II ? Give the label of your selection.
Response line: II
(II: 6.82, I: 5.96)
